Test system: Plasmodium falciparum
Test: GSK_TCMDC: Inhibition of Plasmodium falciparum Dd2 in whole red blood cells, using parasite LDH activity as an index of growth. Test compounds present at 2uM
Type: functional
observed property: Inhibition

Record excerpt, results attached:
> print(dat)
                                   compound  value.observed
1  Cc1cc(N[C@@H](Cc2ccccc2)C(=O)NCCOc2ccccc2)nc(NCCOc2ccccc2)n1.O=C(O)C(F)(F)F             24%
2  O=C(NC1CCN(c2ccnc3cc(Cl)ccc23)C1)c1cccc(F)c1.O=C(O)C(F)(F)F (stereo not given)             98%
3     Cc1cc(Cl)ccc1N(Cc1ccccc1)c1ccnc(Cl)n1             98%
4  CC(C)CNCc1cccc(-c2ccc(CN(CCCN3CCN(C)CC3)C(=O)/C=C/c3ccccc3)cc2)c1.O=C(O)C(F)(F)F             90%

In the following, a different compound is considered.
Please look at this compound and report its Inhibition: CNCc1cccc(-c2ccc3ccnc(N)c3c2)c1
98%

====

Test system: HepG2
Experiment: GSK_TCMDC: Percent inhibition of human HepG2 cell line. Test compounds present at 10uM.
Type: functional
Listed here: items and their measured Inhibition.
Enter your answer as a number in %; do not include the unit.

// worked examples, Inhibition included
> print(dat)
                                    compound  value.observed
 1  CCN(CC)CCCC(C)Nc1c2ccccc2nc2ccc3ccccc3c12.Cl (centres undefined)              24
 2  FC(F)(F)c1ccc2[nH]ccc(=NN=Cc3ccc(Cl)cc3)c2c1               5
 3  Br.CCOC(=O)c1cc(Cl)cc(Cl)c1OCCCON1C(=N)N=C(N)NC1(C)C              70
 4  Cc1cccc2nc(-c3ccc(-c4cccc(CNCC5CCCO5)c4)cc3)[nH]c12.O=C(O)C(F)(F)F (centres undefined)              18
 5  C=CCN1CCC(N(Cc2cccc(Oc3ccccc3)c2)C(=O)C(c2ccccc2)c2ccccc2)CC1               7
 6  O=[N+]([O-])c1cc2c(cc1C=NNc1nc(=Nc3ccccc3)[nH]c(=Nc3ccccc3)[nH]1)OCO2               0
 7  CC1CCCCC1N(C)C1CCN(CCCNC(=O)C=Cc2ccccc2Cl)CC1 (centres undefined)              30
 8  O=c1cc(NCC2(CNCc3cn(Cc4ccccc4)c4ccccc34)CCCCC2)[nH]c2ccccc12              27
 9    COc1cccc(C(=O)NCCOc2ccccc2)c1Oc1ccccc1              14
10  CN1CCC[C@H]1COc1ccc(CN2CC[C@H](NC(=O)c3ccc(Cl)c(Cl)c3)C2)c2ccccc12.O=C(O)C(F)(F)F              47

Recall and state the measured Inhibition for C=CC(C)C1OC(=O)c2cc(OC)cc(OC)c21 (centres undefined) .
100

Answer with reported Inhibition of Cc1cc(NCCC(=O)Nc2ccccc2)nc(NCc2ccccc2C)n1.O=C(O)C(F)(F)F
6

Consider the compound CC(Cc1ccc(CN2CCN(Cc3ccccc3)CC2)cc1)NCC(O)c1cccc(C(F)(F)F)c1.Cl (centres undefined) and give its recorded Inhibition.
51

Given the compound Cc1cc2nc(-c3ccc(C(=O)NC4CCN(Cc5ccccc5)CC4)s3)[nH]c2cc1C , write its reported Inhibition.
33

Answer with reported Inhibition of Cc1cc(N2CCN(C)CC2)nc2ccc(NC(=O)Cc3cccc(C(F)(F)F)c3)cc12
26

Indicate the recorded Inhibition value for this compound: O=C(/C=C/c1ccc(Cl)c(Cl)c1)NCCCCCN1CCCN(C(=O)Nc2cc(F)cc(F)c2)CC1
4

Consider the compound Cc1ccccc1OCC(O)CN1CCC(C2CCN(CC(O)COc3ccccc3C)CC2)CC1 (centres undefined) and give its recorded Inhibition.
12

Provide Inhibition value for the following compound: O=C(O)C(F)(F)F.O=C(O)CCc1ccc(-c2c[nH]c3ncc(-c4ccc5ncccc5c4)cc23)cc1
30

Output measured Inhibition for this item: Cc1ccc(C)c(C2CCN(CCCCNC(=O)c3ccc(NC(=O)c4ccc(Cl)cc4)cc3)CC2)c1
15

====

System: HepG2
Experiment: GSK_TCMDC: Percent inhibition of human HepG2 cell line. Test compounds present at 10uM.
Type: functional
observed property: Inhibition

> print(dat)
                              smiles.string  tested.system  observed.property  value.observed
1  Cn1cnc2nc(NCCc3ccccc3)nc(NCc3cccc4ccccc34)c21          HepG2         Inhibition             16%

Give me measured Inhibition, please, for this compound: Cc1nc(-c2cccc(C(F)(F)F)c2)n2nc(Nc3ccc(OCCN4CCCC4)cc3)ncc12
30%

In one line, give reported Inhibition of the entry CCN(CC)C(=O)c1cccc(C=Cc2ccc(-c3c(C)[nH]c(C)c(Cl)c3=O)cc2)c1 .
9%

Look up Inhibition of Cc1cccc2nc(-c3ccc(-c4ccc(CNC(C)C)cc4)cc3)[nH]c12.O=C(O)C(F)(F)F and report it.
12%

Read the entry COc1ccc2c(=NN=Cc3ccc(F)cc3)cc(C)[nH]c2c1 and write its reported Inhibition.
4%

====

Tested on: Plasmodium falciparum
Experiment: GSK_TCMDC: Inhibition of Plasmodium falciparum 3D7 in whole red blood cells, using parasite LDH activity as an index of growth. Test compounds present at 2uM
Format: functional
Readings of Inhibition for the listed compounds
Just the number please, in %, no unit attached.

Worked examples follow.
> print(dat)
                              smiles.string          tested.system  observed.property  value.observed
1  CC(C)N1CCN(c2ccc(OCCCCN3CCN(c4cccc(Cl)c4Cl)CC3)c(C(F)(F)F)c2)CC1.Cl  Plasmodium falciparum         Inhibition             100
2    Cc1cc(=NN=Cc2ccccc2Cl)c2cccc(C)c2[nH]1  Plasmodium falciparum         Inhibition              97
3  COc1ccc2c(c1)CCN(CCN1CCC(CNC(=O)c3ccc(-c4ccc(C#N)cc4)cc3)CC1)C2  Plasmodium falciparum         Inhibition             100
4  NS(=O)(=O)c1cccc(Nc2nccc(-c3cnn4ncccc34)n2)c1  Plasmodium falciparum         Inhibition              89
5  COC(=O)c1ccc2c(-c3nc4ccc(OC)cc4[nH]3)c[nH]c2c1  Plasmodium falciparum         Inhibition              95
6  Cc1c(Br)cc2nc(-c3ccc(C(=O)NC4CCN(Cc5ccccc5)CC4)cc3)[nH]c2c1C  Plasmodium falciparum         Inhibition             100

Complete the entry with Inhibition for CN1CCN(c2ccnc3ccc(NC(=O)Nc4ccc(-c5ccncc5)c(C(F)(F)F)c4)cc23)CC1
99

Respond only with Inhibition recorded for Cc1cccc(Cl)c1S(=O)(=O)N1CCCCC(c2ccc(C(F)(F)F)cc2)=N1
100

Look up Inhibition of CCCCCN1CCC(CNS(=O)(=O)c2ccc(C(=O)Nc3cccc(C(F)(F)F)c3)cc2)CC1.O=C(O)C(F)(F)F and report it.
98

====

Test system: Plasmodium falciparum
Test: GSK_TCMDC: Inhibition of Plasmodium falciparum Dd2 in whole red blood cells, using parasite LDH activity as an index of growth. Test compounds present at 2uM
Type: functional
Inhibition: recorded values
Give just the numeric value; % need not be written.

> print(dat)
                                   compound  observed.property  value.observed
1  COc1ccc(S(=O)(=O)N(c2cc(Br)cc3c2OCC3)S(=O)(=O)c2ccc(OC)c(N3CCN(C)CC3)c2)cc1N1CCN(C)CC1         Inhibition              98
2  Cl.N#Cc1ccc2c(c1)CCN(CCC1CCC(NC(=O)c3cc4ccccc4[nH]3)CC1)CC2 (stereo not drawn)         Inhibition              25
3  CN1CCC(N2CCN(Cc3ccc(-c4cccc(-c5nc6cc(F)ccc6[nH]5)c4)cc3)CC2)CC1.O=C(O)C(F)(F)F         Inhibition              99
4  CC(C)c1ccc(NC(=O)c2ccc(C(=O)NCC3CCN(CC4CCCCC4)CC3)cc2)cc1.O=C(O)C(F)(F)F         Inhibition              18
5    CCCCCc1ccc(N2C(N)=NC(N)=NC2(C)C)cc1.Cl         Inhibition               1

Look up and report measured Inhibition for this entry: CC(=O)c1ccc2cc(C(=O)NC3CCC(CCN4CCc5ccc(-c6noc(C)n6)cc5CC4)CC3)[nH]c2c1.Cl (stereo not drawn)
45

Give the value of Inhibition reported for the following: CC(C)c1ccc(-c2noc(SCC(=O)N(C)c3ccc(F)cc3)n2)cc1
77

Using the record for COc1cccc2cc(C(=O)N[C@@H](CC(C)C)C(=O)NC3CC[C@@H](C)N(C(=O)Nc4ccncc4)CC3=O)oc12 (stereo partly drawn) , state its measured Inhibition.
90
